target: PLK3 (Homo sapiens); assay: PLK TR-FRET peptide assay, PLK3; type: biochemical; settings: GST-PLK3, 15 min reaction, read-out: Plk3 IC50
Sequence (Q9H4B4 whole entry): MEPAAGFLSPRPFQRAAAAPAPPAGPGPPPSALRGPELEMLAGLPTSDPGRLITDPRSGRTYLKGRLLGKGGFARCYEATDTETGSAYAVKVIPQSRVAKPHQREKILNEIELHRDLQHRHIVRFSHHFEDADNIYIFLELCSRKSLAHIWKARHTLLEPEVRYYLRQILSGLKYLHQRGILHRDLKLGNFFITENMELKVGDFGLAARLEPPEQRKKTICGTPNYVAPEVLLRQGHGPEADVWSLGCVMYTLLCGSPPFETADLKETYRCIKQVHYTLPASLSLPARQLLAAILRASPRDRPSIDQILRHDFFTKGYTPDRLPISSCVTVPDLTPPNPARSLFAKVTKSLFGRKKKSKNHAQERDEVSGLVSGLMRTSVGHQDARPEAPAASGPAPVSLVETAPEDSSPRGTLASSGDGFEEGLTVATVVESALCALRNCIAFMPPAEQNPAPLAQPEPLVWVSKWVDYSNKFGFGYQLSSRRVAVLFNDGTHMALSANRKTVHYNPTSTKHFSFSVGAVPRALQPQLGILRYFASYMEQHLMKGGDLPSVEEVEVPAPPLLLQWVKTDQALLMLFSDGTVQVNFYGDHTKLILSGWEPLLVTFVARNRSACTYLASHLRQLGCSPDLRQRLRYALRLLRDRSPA
pIC50: −log10 of the molar value.
REPORTED ENDPOINT: pIC50

>>> observed_value("[2H]C([2H])([2H])N1C(=O)[C@H](C([2H])([2H])C([2H])([2H])[2H])N(C([2H])(C([2H])([2H])[2H])C([2H])([2H])[2H])c2nc(-n3ccnc3-c3ccc(F)cc3)ncc21 [Example 199]")
"< 4.30"
>>> observed_value("CC(C)N1c2nc(-n3ccnc3-c3ccccc3)ncc2N(C)C(=O)C12CCC2 [Example 289]")
"4.30 to 5.00"
>>> observed_value("CC[C@@H]1C(=O)N(C)c2cnc(-c3cn[nH]c3-c3cscn3)nc2N1C1CCCC1 [Example 307]")
"> 6.00"
>>> observed_value("CC[C@@H]1C(=O)N(C)c2cnc(-n3ccnc3-n3ccccc3=O)nc2N1C1CCCC1 [Example 113]")
"5.00 to 6.00"
>>> observed_value("CCC12CCCCN1c1nc(-n3ccnc3-c3cccc(F)c3)ncc1N(C)C2=O (racemic) [Example 239]")
"4.30 to 5.00"
>>> observed_value("CC[C@@H]1C(=O)N(C)c2cnc(-c3ccc(S(C)(=O)=O)cc3)nc2N1C1CCCC1 [Example 64]")
"5.00 to 6.00"
>>> observed_value("CC[C@@H]1C(=O)N(C)c2cnc(-n3ccnc3-c3cccnc3)nc2N1C1CCCC1 [Example 67]")
"> 6.00"
>>> observed_value("[2H]C([2H])([2H])N1C(=O)[C@@H](C([2H])([2H])C([2H])([2H])[2H])N(C([2H])(C([2H])([2H])[2H])C([2H])([2H])[2H])c2nc(-n3ccnc3-c3ccc(F)cc3)ncc21 [Example 200]")
"5.00 to 6.00"
>>> observed_value("CC[C@@]12CCCN1c1nc(-c3cncnc3-c3ccccc3)ncc1N(C)C2=O [Example 222]")
"4.30 to 5.00"
>>> observed_value("CC[C@]12CCCCN1c1nc(-n3ccnc3)ncc1N(C)C2=O [Example 287]")
"< 4.30"
>>> observed_value("CC[C@@H]1C(=O)N(C)c2cnc(-c3cncs3)nc2N1C1CCCC1 [Example 355]")
"5.00 to 6.00"
>>> observed_value("CC[C@@H]1CC[C@@]2(CC)C(=O)N(C)c3cnc(-c4cn[nH]c4-c4nccs4)nc3N12 [Example 340]")
"5.00 to 6.00"
>>> observed_value("CC[C@@H]1C(=O)N(C)c2cnc(-n3ccnc3N3CCOCC3)nc2N1C1CCCC1 [Example 87]")
"< 4.30"
>>> observed_value("CCC12CCCCN1c1nc(-n3ccnc3)ncc1N(C)C2=O (racemic) [Example 283]")
"< 4.30"
>>> observed_value("CC[C@@H]1C(=O)N(C)c2cnc(N3CCN=C3C3CC3)nc2N1C(C)C [Example 297]")
"4.30 to 5.00"
>>> observed_value("CC[C@@H]1C(=O)N(C)c2cnc(-n3ccnc3-c3ccc(F)c(Cl)c3)nc2N1C1CCOC1 (stereo partly drawn) [Example 232]")
"5.00 to 6.00"
>>> observed_value("CC[C@@H]1C(=O)N(C)c2cnc(-n3ccnc3-c3ccc(F)c(F)c3)nc2N1C1CCC1 [Example 48]")
"4.30 to 5.00"
>>> observed_value("CCC1C(=O)N(C)c2cnc(-n3cc[n+](C)c3-c3ccccc3)nc2N1NC (stereo not drawn) [Example 284]")
"< 4.30"
>>> observed_value("CC[C@@H]1C(=O)N(C)c2cnc(-c3ccncc3N)nc2N1C(C)C [Example 93]")
"< 4.30"
>>> observed_value("CC[C@@H]1C(=O)N(C)c2cnc(-c3nccs3)nc2N1C1CCCC1 [Example 330]")
"4.30 to 5.00"
>>> observed_value("CN1C(=O)[C@H]2CCCN2c2nc(-c3ccncc3)ncc21 [Example 34]")
"< 4.30"
